Documented OD450 nm across a set of binders
system-tested: T1, human APRIL protein (human, UniProt O75888 105-250, limits assumed)
T1 construct: Bought protein; also called recombinant APRIL protein
T1 sequence (looked up): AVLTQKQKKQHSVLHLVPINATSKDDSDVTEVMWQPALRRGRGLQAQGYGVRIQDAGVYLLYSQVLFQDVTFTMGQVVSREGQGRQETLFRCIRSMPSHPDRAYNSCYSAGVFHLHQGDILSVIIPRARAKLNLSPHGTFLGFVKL
experimental-protocol: ELISA, coated APRIL; antibody 0.00427 nM

{"binder": "2-1G11 (antibody, human IgG1, V domains shown) VH: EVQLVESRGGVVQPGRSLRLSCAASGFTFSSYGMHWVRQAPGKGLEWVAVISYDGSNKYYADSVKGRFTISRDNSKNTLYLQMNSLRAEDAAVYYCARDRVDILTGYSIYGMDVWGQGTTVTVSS VL: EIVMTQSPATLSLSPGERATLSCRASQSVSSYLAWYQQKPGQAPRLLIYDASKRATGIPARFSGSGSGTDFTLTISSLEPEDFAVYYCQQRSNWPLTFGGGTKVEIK", "OD450 nm": 0.107}
{"binder": "L9G7 (antibody, human IgG1, V domains shown) VH: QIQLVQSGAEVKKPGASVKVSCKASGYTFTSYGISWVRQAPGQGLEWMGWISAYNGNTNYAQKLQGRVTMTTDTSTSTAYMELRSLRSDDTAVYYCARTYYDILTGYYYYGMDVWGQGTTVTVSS VL: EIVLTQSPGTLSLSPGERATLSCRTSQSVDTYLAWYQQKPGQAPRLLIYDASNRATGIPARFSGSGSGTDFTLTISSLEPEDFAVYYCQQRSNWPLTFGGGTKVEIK", "OD450 nm": 0.161}
{"binder": "67A2E1D10 (antibody, V domains shown, Mouse hybridoma antibody purified on Protein G) VH: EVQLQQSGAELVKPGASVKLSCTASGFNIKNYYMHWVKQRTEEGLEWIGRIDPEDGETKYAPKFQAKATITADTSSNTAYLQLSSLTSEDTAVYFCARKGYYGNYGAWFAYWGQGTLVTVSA VL: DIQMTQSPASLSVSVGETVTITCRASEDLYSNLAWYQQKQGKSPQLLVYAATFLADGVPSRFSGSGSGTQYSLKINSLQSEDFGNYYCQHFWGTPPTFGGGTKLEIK", "OD450 nm": 0.0553}
{"binder": "93C6F10D3 (antibody, V domains shown) VH: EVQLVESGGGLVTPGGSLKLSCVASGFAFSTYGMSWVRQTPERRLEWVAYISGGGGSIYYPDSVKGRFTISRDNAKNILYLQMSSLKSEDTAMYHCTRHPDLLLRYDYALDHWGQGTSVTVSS VL: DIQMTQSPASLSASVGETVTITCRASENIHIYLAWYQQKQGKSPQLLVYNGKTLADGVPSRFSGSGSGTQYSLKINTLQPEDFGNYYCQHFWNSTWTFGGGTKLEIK", "OD450 nm": 0.0546}
{"binder": "78C11D2D12 (antibody, V domains shown, Mouse hybridoma antibody purified on Protein G) VH: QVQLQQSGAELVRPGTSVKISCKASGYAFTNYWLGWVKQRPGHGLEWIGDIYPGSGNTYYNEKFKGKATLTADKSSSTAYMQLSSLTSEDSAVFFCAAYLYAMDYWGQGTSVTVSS VL: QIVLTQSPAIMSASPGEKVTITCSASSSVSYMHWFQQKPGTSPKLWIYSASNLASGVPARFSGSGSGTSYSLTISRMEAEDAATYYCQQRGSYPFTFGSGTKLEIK", "OD450 nm": 0.0564}
